Kindly supply the reported Luciferase activation soluble 10 nM IgG, FOC values for the records listed here.
target: human TREM2/DAP12 fusion protein (human, UniProt O43914 41-113, limits assumed); experiment: cell-based or functional assay
Sequence (O43914 other isoform, or with tags, fused parts or gaps limits assumed): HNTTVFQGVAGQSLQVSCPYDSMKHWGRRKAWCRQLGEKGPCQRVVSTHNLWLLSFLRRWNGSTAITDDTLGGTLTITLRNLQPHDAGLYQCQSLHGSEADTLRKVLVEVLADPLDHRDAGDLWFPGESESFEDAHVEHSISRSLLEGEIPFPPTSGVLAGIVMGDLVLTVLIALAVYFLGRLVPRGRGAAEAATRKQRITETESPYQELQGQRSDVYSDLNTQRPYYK
Write it as a number; the unit FOC goes unstated.

Quick check: Luciferase activation soluble 10 nM IgG, FOC of AL2p-4 (antibody, V domains shown) VH: QVQLVQSGAEVKKPGSSVKVSCKASGYAFSSSWMNWVRQAPGQGLEWMGRIYPGQGDTNYAQKFQGRVTITADESTSTAYMELSSLRSEDTAVYYCARLLRNQPGESYAMDYWGQGTLVTVSS VL: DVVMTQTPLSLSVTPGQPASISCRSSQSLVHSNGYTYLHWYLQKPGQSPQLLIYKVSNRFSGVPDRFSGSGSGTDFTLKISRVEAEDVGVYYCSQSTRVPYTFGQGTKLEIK ? 1.45

Ok, now AL2p-12 (antibody, V domains shown, Fab and IgG formats under one id) VH: QVQLVQSGAEVKKPGSSVKVSCKASGYAFSSHWMNWVRQAPGQGLEWMGRIYPGDGDTNYAHKFQGRVTITADESTSTAYMELSSLRSEDTAVYYCARLLRNQPGESYAMDYWGQGTLVTVSS VL: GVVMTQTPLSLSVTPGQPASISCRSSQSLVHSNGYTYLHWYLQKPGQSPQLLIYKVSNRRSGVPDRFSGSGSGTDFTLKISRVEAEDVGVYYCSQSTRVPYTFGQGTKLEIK 1.96

Ok, now AL2p-32 (antibody, V domains shown, Fab and IgG formats under one id) VH: QVQLVQSGAEVKKPGSSVKVSCKASGYAFSSEWMNWVRQAPGQGLEWMGRIYPGDGDTNYAQKFQGRVTITADESTSTAYMELSSLRSEDTAVYYCARLLRNQPGESYAMDYWGQGTLVTVSS VL: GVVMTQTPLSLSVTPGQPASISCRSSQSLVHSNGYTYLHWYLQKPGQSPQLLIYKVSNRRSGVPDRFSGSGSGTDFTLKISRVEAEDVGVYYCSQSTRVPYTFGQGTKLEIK 1.47

Ok, now AL2p-18 (antibody, V domains shown, Fab and IgG formats under one id) VH: QVQLVQSGAEVKKPGSSVKVSCKASGYAFSSHWMNWVRQAPGQGLEWMGRIYPGDGDTNYAQKWQGRVTITADESTSTAYMELSSLRSEDTAVYYCARLLRNQPGSSYAMDYWGQGTLVTVSS VL: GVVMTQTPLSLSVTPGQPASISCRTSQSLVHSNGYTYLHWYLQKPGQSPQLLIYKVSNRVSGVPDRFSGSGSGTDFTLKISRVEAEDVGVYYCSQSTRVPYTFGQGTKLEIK 2.06

Ok, now AL2p-h77 (antibody, human IgG1, V domains shown, humanized, human IgG1; Fab and IgG formats under one id; also called A2p-h77) VH: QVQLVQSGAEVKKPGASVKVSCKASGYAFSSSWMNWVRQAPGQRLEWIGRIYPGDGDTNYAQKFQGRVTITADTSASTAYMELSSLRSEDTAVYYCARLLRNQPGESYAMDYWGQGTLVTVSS VL: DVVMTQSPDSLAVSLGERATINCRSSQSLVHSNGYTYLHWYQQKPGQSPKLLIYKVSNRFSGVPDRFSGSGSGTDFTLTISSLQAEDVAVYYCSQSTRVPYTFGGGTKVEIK 1.47

Ok, now AL2p-35 (antibody, V domains shown, Fab and IgG formats under one id) VH: QVQLVQSGAEVKKPGASVKVSCKASGYAFWSSWMNWVRQAPGQRLEWIGRIYPGDGDTNYAQKFQGRVTITADTSASTAYMELSSLRSEDTAVYYCARLLRNQPGESYAHDYWGQGTLVTVSS VL: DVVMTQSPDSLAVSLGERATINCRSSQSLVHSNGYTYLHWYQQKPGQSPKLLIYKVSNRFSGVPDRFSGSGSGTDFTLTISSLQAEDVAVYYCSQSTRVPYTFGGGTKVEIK 2.05

Ok, now AL2p-30 (antibody, V domains shown, Fab and IgG formats under one id) VH: QVQLVQSGAEVKKPGSSVKVSCKASGYAFSSQWMNWVRQAPGQGLEWMGRIYPGDGDTNYAWKFQGRVTITADESTSTAYMELSSLRSEDTAVYYCARLLRNQPGESYAMDYWGQGTLVTVSS VL: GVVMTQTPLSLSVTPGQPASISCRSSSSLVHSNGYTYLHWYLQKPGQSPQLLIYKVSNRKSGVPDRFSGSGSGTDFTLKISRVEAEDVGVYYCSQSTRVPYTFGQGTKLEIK 2.31

Ok, now AL2p-17 (antibody, V domains shown, Fab and IgG formats under one id) VH: QVQLVQSGAEVKKPGSSVKVSCKASGYAFSSHWMNWVRQAPGQGLEWMGRIYPGDGDTNYAQKRQGRVTITADESTSTAYMELSSLRSEDTAVYYCARLLRNQPGESYAMDYWGQGTLVTVSS VL: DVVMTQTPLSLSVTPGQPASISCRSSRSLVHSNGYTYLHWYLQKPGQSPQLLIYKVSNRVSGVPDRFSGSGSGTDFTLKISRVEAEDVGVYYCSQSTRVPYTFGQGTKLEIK 2.13

Reference source for all entries: patent US20200317776A1
